Taken from patent US7301022B2.

Provide the recorded melting point for the entries that follow.

CC(C)CN1CCC[C@H]1CN(C)c1nc(C(F)(F)F)ccc1-c1cc(Oc2cccc3sc(N)nc23)ncn1 [Example 28] :: 93.2 to 96.8 °C
CC(=O)Nc1nc2c(Oc3cc(-c4ccc(C(F)(F)F)cc4NC(=O)[C@@H]4CCN4CC(C)C)ncn3)cccc2s1 [Example 38] :: 174.4 to 174.9 °C

Proceeding to the next molecule to report its melting point.
What value of melting point has been recorded for this entry: CC(C)CN1CCCCC1CN(C)c1nc(C(F)(F)F)ccc1-c1cc(Oc2cccc3sc(N)nc23)ncn1 (stereo not drawn) [Example 24] 98.9 to 101.9 °C

----------
Provide the recorded melting point for the entries that follow.

CC(C)CN1CCCCC1CNc1nc(C(F)(F)F)ccc1-c1cc(Oc2cccc3sc(N)nc23)ncn1 (stereo not drawn) [Example 26] :: 118 to 118.2 °C
CC(=O)Nc1nc2c(Oc3cc(-c4ccc(C(F)(F)F)cc4NC(=O)[C@@H]4CCN4C(C)C)ncn3)cccc2s1 [Example 37] :: 198.8 to 199.4 °C

Proceeding to the next molecule to report its melting point.
What value of melting point has been recorded for this entry: CC(C)CN1CCCCC1CNc1nc(C(F)(F)F)ccc1-c1cc(Oc2cccc3[nH]c(=O)c(N)nc23)ncn1 (stereo not drawn) [Example 6] 228 to 229 °C
